Where these numbers come from: paper PMC9050161

Experimental Target: CYP2C9 (Homo sapiens, UniProt P11712)
Sequence (P11712 whole entry): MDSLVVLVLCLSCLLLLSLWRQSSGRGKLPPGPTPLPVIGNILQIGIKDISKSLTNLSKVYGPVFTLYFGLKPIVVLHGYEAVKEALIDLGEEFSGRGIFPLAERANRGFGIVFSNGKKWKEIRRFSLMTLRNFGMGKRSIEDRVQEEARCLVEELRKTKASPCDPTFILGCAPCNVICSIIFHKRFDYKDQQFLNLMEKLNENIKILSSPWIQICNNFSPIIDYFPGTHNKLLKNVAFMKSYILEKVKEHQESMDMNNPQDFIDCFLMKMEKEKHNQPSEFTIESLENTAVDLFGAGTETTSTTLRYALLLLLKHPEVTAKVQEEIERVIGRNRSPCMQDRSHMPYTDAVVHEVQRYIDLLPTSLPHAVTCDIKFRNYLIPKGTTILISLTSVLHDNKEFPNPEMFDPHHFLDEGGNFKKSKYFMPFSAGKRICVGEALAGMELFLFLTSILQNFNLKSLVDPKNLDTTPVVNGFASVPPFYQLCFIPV
Reported Property: Ki (nM)
Numbers only, in nM.

I'd like to know its Ki. The compound in question is Oc1cccc(-c2nc(N3CCOCC3)c3oc4ncccc4c3n2)c1
560

* * *

Experimental Target: CYP2C19 (Homo sapiens, UniProt P33261)
Sequence (P33261 whole entry): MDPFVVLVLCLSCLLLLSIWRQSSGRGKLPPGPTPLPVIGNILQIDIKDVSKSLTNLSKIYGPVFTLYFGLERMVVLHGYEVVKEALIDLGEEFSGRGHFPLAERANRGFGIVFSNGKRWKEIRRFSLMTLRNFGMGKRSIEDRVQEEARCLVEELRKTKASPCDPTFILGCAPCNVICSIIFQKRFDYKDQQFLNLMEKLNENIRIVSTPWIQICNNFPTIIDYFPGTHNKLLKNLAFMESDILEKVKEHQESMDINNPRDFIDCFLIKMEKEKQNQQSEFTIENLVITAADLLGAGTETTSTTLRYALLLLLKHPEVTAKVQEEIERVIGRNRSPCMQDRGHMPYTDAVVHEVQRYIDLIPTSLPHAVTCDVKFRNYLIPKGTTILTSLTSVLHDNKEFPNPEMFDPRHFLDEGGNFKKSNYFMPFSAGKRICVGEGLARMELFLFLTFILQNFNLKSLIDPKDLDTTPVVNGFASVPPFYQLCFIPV
Reported Property: pIC50
One number for each entry, as −log10 of the molar value.

Checklist item: pIC50 tested on CYP2C19 (Homo sapiens, UniProt P33261), entry Oc1cccc(-c2nc(N3CCOCC3)c3oc4ncccc4c3n2)c1 , value?
6.23

* * *

Experimental Target: UniProtKB P20813
Run Description: Inhibition of CYP2B6
Type: biochemical
Reported Property: Ki

I'd like to know its Ki. The molecule in question is Oc1cccc(-c2nc(N3CCOCC3)c3oc4ncccc4c3n2)c1
640 nM

* * *

Experimental Target: CYP1A2 (Homo sapiens, UniProt P05177)
Sequence (P05177 1-516): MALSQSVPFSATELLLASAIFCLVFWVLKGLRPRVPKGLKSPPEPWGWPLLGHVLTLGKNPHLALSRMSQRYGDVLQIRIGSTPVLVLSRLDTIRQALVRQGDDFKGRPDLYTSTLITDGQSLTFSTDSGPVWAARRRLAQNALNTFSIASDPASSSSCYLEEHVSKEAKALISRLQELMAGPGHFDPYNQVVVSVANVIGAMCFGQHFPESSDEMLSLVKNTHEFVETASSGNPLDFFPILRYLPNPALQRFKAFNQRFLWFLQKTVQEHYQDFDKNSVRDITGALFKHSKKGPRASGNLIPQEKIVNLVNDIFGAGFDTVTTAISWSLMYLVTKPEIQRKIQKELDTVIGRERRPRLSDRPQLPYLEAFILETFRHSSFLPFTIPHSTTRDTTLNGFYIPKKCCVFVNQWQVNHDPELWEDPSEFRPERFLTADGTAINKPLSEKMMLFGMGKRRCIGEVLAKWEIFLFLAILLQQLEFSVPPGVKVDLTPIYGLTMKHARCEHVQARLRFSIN
Reported Property: pKi
Answers are plain numbers, as −log10 of the molar value.

I'd like to know its pKi. The compound in question is Oc1cccc(-c2nc(N3CCOCC3)c3oc4ncccc4c3n2)c1
6.42

* * *

Experimental Target: UGT1A7 (Homo sapiens, UniProt Q9HAW7)
Sequence (Q9HAW7 26-530): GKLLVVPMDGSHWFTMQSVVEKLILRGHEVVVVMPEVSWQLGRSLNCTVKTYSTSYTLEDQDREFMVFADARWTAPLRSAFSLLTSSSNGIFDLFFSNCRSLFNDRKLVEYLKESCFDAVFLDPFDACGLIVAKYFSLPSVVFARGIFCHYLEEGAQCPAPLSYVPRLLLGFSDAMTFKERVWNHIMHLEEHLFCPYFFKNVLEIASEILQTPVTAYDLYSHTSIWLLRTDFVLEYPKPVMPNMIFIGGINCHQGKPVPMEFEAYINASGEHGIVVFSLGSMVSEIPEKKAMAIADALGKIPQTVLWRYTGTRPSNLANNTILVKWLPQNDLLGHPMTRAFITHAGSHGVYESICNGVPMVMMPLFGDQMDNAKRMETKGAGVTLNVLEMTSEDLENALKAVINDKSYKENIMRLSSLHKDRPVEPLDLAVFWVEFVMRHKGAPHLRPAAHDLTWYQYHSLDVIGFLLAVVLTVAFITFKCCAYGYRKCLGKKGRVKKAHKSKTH
Reported Property: IC50
Number first, unit second.

I'd like to know its IC50. The compound in question is Oc1cccc(-c2nc(N3CCOCC3)c3oc4ncccc4c3n2)c1 [PI-103]
6.25 µM

* * *

Experimental Target: CYP1A2 (Homo sapiens)
Sequence (P05177 1-516): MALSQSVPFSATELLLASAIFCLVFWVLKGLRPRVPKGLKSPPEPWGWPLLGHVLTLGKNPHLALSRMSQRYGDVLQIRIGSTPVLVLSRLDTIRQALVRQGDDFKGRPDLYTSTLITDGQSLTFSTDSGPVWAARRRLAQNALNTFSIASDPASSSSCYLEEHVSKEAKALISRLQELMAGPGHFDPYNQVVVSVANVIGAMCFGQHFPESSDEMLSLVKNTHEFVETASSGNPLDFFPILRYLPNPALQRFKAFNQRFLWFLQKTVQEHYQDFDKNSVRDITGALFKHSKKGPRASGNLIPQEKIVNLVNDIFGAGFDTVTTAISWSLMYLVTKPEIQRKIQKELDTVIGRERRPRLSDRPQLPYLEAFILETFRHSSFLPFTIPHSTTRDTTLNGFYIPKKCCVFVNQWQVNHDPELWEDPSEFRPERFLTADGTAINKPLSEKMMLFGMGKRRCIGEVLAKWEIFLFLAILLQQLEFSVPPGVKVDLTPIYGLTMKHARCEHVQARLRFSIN
Reported Property: IC50

Checklist item: IC50 tested on CYP1A2 (Homo sapiens), entry Oc1cccc(-c2nc(N3CCOCC3)c3oc4ncccc4c3n2)c1 [PI-103] , value?
370 nM

* * *

Experimental Target: CYP2B6 (Homo sapiens, UniProt P20813)
Sequence (P20813 1-491): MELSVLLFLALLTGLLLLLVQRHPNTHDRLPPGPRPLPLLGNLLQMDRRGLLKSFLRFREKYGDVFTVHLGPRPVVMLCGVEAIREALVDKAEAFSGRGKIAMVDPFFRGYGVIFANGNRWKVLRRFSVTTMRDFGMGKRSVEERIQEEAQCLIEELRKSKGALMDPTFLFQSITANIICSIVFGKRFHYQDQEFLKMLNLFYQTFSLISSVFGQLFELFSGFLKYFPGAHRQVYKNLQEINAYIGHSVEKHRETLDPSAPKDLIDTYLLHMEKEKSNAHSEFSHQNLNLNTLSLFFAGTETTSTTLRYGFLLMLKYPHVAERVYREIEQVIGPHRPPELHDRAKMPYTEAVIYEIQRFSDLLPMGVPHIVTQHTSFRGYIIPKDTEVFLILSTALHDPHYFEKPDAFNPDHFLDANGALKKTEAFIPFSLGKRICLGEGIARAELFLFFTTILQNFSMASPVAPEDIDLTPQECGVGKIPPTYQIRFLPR
Reported Property: IC50 (µM)
Numbers only, in µM.

Checklist item: IC50 tested on CYP2B6 (Homo sapiens, UniProt P20813), entry Oc1cccc(-c2nc(N3CCOCC3)c3oc4ncccc4c3n2)c1 , value?
2.25

* * *

Experimental Target: UGT1A3 (Homo sapiens, UniProt P35503)
Sequence (P35503 29-534): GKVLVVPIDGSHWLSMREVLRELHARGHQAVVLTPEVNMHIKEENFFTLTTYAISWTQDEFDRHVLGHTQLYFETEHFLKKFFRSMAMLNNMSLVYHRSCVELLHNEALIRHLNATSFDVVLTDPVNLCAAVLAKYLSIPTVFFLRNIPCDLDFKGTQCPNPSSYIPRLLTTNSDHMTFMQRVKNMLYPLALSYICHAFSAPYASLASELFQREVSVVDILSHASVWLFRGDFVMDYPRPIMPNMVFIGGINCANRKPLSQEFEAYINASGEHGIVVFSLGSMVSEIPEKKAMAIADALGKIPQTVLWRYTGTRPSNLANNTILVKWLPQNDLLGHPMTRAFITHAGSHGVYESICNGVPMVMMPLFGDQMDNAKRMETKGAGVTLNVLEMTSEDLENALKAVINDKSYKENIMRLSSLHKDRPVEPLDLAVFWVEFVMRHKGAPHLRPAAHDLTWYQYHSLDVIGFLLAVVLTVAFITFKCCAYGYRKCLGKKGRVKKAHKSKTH
Reported Property: pKi
One number for each entry, as −log10 of the molar value.

Checklist item: pKi tested on UGT1A3 (Homo sapiens, UniProt P35503), entry Oc1cccc(-c2nc(N3CCOCC3)c3oc4ncccc4c3n2)c1 [PI-103] , value?
5.59

* * *

Experimental Target: UGT1A9 (Homo sapiens)
Sequence (O60656 26-530): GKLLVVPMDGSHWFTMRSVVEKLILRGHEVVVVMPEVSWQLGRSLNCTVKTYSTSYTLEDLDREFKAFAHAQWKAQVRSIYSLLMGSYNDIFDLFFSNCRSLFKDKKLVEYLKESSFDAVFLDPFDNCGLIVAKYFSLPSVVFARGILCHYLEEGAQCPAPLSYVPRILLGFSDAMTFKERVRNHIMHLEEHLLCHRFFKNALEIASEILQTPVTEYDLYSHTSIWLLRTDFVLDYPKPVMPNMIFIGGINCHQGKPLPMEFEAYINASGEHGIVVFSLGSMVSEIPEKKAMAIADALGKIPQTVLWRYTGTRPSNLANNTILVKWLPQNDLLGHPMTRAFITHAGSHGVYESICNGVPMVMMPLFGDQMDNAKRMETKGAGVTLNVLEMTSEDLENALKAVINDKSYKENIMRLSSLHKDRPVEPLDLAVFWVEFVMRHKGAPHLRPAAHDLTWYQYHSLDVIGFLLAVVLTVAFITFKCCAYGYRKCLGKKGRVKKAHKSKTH
Reported Property: pIC50
One number for each entry, as −log10 of the molar value.

Checklist item: pIC50 tested on UGT1A9 (Homo sapiens), entry Oc1cccc(-c2nc(N3CCOCC3)c3oc4ncccc4c3n2)c1 , value?
4.78

* * *

Experimental Target: UniProt:P22310
Sequence (P22310 29-534): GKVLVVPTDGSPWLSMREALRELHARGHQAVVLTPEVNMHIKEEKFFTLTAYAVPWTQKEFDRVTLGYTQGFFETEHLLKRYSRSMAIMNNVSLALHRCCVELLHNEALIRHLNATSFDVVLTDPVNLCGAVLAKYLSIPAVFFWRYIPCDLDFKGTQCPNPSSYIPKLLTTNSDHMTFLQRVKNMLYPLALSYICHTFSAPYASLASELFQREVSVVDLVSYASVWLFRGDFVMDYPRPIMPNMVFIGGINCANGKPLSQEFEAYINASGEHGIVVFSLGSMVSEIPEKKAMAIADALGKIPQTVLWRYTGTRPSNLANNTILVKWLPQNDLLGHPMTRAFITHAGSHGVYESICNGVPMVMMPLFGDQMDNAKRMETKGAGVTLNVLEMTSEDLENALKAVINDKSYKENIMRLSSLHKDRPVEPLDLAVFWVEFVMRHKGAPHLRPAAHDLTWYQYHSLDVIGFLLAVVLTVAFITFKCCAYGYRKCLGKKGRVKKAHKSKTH
Reported Property: Ki (µM)
Give bare numbers, in µM.

I'd like to know its Ki. The compound in question is Oc1cccc(-c2nc(N3CCOCC3)c3oc4ncccc4c3n2)c1
13.8

* * *

Experimental Target: UGT2B7 (Homo sapiens, UniProt P16662)
Sequence (P16662 24-529): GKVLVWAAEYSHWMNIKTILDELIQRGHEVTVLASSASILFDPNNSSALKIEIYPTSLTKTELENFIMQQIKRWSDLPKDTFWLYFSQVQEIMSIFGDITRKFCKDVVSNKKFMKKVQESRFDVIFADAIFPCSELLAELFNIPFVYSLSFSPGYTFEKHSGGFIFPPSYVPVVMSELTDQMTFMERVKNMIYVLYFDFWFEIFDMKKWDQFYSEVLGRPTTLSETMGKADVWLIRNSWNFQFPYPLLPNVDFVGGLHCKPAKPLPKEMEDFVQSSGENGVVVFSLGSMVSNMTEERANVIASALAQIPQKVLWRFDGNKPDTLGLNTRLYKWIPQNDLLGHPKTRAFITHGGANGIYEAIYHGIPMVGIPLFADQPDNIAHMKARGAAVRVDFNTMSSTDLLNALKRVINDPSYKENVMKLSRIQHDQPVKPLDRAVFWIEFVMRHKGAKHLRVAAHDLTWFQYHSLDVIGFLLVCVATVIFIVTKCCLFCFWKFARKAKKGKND
Reported Property: Ki (µM)
Numbers only, in µM.

I'd like to know its Ki. The molecule in question is Oc1cccc(-c2nc(N3CCOCC3)c3oc4ncccc4c3n2)c1
1.35
